The values you see were collected from paper PMC7764606.

MEASURED ON: recombinant AKR1C3 (Homo sapiens)
Construct: made in house; host or cells: Escherichia coli
Sequence (P42330 whole entry): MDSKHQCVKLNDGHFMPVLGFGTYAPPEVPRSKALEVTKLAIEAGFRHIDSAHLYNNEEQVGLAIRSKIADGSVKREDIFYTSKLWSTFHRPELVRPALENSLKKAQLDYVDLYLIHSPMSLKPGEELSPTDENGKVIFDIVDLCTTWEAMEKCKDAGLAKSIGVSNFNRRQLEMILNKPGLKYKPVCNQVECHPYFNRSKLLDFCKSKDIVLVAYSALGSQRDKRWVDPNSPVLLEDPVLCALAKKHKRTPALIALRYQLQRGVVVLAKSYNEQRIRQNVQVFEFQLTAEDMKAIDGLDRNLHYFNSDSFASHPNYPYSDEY
MEASUREMENT DESCRIPTION: Reduction of Dau by recombinant AKR1C3 (UHPLC detection of Dau-ol)
Assay type: biochemical
TEST CONDITIONS: AKR1C3 0.015 mg/mL (0.405 μM); read-out: Ki^app (Morrison equation for tight-binding inhibitors)
pKi: −log10 of the molar value.
READOUT: pKi

A: CC#CC(=O)N1CCC[C@H]1c1nc(-c2ccc(C(=O)Nc3ccccn3)cc2)c2c(N)nccn12
B: C=CC(=O)N1CCC[C@@H](n2nc(-c3ccc(Oc4ccccc4)cc3)c3c(N)ncnc32)C1
Returns the identifier with the smallest measured pKi among A and B . Provide the label of your selected option as the answer.
A
